# SYSTEM UNDER TEST: Cytochrome P450 1A2 (Homo sapiens)
# ASSAY PROCEDURE: Cytochrome panel assay with activity outcomes
# STUDY CONDITIONS: recombinant CYP, pro-luciferin dealkylation, luminescence, p450-cyp1a2; series mostly up to 57.1 µM
Screen size: about 16,000 compounds; about 5,700 (36%) were called active. Not shown: some 24% with an inconclusive outcome. The list shows a part of the results.
MEASUREMENT NAME: AC50

Sample answers from the record:
CO[C@@H]1CC[C@@]2(C)[C@@H](CC[C@@]3(C)[C@H]2CC=C2[C@H]4CC(C)(C)[C@H](O)[C@@H](OC(C)=O)[C@]4(CO)[C@H](O)C[C@]23C)[C@@]1(C)CO (tested in a mixture with another compound)	inactive
O=C1CC(=O)C(n2cncn2)C(c2cccc(Cl)c2)C1 (centres undefined)	inactive
Cc1noc(C)c1C(=O)N1CCC2(CCCN(Cc3nccs3)C2)CC1	inactive
O=C1C(Cl)=C(Nc2ccc(S(=O)(=O)Nc3ccccn3)cc2)C(=O)c2ccccc21	3.16 µM (active)
Cc1cc(Cl)ccc1Oc1ncnc2oc(-c3ccccc3)cc12	3.16 µM (active)
O=C(Nc1nc2ccc(F)cc2s1)C1CCCO1 (centres undefined)	4.47 µM (active)
O=C(c1cccc(F)c1)N1CCC2(CCCN(Cc3ccccc3)C2)CC1	inactive
O=C(c1cccc(F)c1)N1CCC2(CCCN(Cc3nccs3)C2)CC1	inactive

Read the next record carefully.
For the molecule "O=C(c1cccc(F)c1)N1CCC2(CCCN(c3ccc(-c4ccccc4)cc3)C2)CC1" , what AC50 is on record?
15.8 µM (active)

* * *

# SYSTEM UNDER TEST: Cytochrome P450 1A2 (Homo sapiens) (UniProt P05177)
# Sequence (P05177 whole entry, looked up): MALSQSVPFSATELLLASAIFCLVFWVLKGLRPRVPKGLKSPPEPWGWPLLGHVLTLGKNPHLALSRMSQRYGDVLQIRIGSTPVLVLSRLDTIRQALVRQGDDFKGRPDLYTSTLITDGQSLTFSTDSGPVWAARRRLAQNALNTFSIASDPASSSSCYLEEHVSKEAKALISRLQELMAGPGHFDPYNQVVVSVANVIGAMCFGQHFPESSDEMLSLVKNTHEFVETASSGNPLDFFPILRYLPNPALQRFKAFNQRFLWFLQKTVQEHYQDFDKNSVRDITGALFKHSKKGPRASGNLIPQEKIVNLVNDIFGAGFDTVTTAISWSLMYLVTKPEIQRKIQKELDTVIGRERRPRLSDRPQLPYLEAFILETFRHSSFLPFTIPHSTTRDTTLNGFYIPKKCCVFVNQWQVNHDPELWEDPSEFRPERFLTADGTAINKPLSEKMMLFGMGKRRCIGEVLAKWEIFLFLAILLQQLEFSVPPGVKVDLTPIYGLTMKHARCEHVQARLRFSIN
# ASSAY PROCEDURE: Cytochrome panel assay with activity outcomes
# STUDY CONDITIONS: recombinant CYP, pro-luciferin dealkylation, luminescence, p450-cyp1a2; series mostly up to 57.1 µM
Among all 16,000 compounds or so, about 5,700 (36%) were called active. About 24% were inconclusive and are not listed. The list shows a part of the results.
MEASUREMENT NAME: AC50

Sample answers from the record:
O=C(C1CCN(S(=O)(=O)c2cccc3nsnc23)CC1)N1CCN(c2ccccc2F)CC1	inactive
CCOC(=O)C[n+]1c(C)sc2ccc(OC)cc21	14.1 µM (active)
Fc1ccc(Nc2ccnc(-c3ccoc3)n2)cc1	1 µM (active)
CN(C)c1ccc(-c2cc(Nc3ccc(F)cc3)ncn2)cc1	0.398 µM (active)

For the compound "Cc1[nH]n(C(C)(C)C)c(=O)c1Sc1ccccc1" , what AC50 is on record?
inactive

Now give it for "CCOC(=O)Cc1cc(=O)n2[nH]c(C)c(C#N)c2n1" too.
inactive

* * *

# SYSTEM UNDER TEST: Cytochrome P450 1A2 (Homo sapiens)
# ASSAY PROCEDURE: Cytochrome panel assay with activity outcomes
# STUDY CONDITIONS: recombinant CYP, pro-luciferin dealkylation, luminescence, p450-cyp1a2; series mostly up to 57.1 µM
# Experimental: The P450 gene superfamily is involved in the metabolism and clearance of xenobiotics. This assay used various human CYP P450 isozymes to measure the dealkylation of various pro-luciferin substrates to luciferin. The luciferin is then measured by luminescence after the addition of a luciferase detection reagent. […] Inhibitors and some substrates limit the production of luciferin, and decrease measured luminescence. […] 8, Detection, 1 sec, ViewLux luminescent read […]
The campaign covered roughly 16,000 compounds. About 5,700 (36%) were called active. Another 24% or so got no clear call; they are omitted. The call rests on the fitted dose curve; in most records, active means well fitted curve in the direction sought with a large enough effect; inconclusive means small, poorly fitted or top-dose-only effect, or effect the other way; inactive means no such curve, though single readings can be large or run the other way. The list shows a part of the results.
Outcome (select one): active, inactive

O=C(COC(=O)c1cccc(S(=O)(=O)N2CCN(c3ccccc3)CC2)c1)NCc1ccco1	inactive

Test call for this compound, please: "CCOC(=O)/C(C#N)=C\N(C)C"
inactive

* * *

# SYSTEM UNDER TEST: Cytochrome P450 1A2 (Homo sapiens)
# ASSAY PROCEDURE: Cytochrome panel assay with activity outcomes
# STUDY CONDITIONS: recombinant CYP, pro-luciferin dealkylation, luminescence, p450-cyp1a2; series mostly up to 57.1 µM
Out of some 16,000 compounds screened, about 5,700 (36%) were called active. About 24% were inconclusive and are not listed. Calls come from the whole dose curve; as a rule, active = well fitted curve in the direction sought with a large enough effect; inconclusive = small, poorly fitted or top-dose-only effect, or effect the other way; inactive = no such curve, though single readings can be large or run the other way. This is one part of the list.
Outcome (select one): 1 (active), -1 (inactive)

Some solved entries appear below for comparison.
COc1ccccc1-c1ccc2ncnc(N(C)C)c2c1	1
CCN(CC)C(=O)COc1ccc(S(=O)(=O)N2CCOCC2)cc1	-1
CN(C)c1ncnc2ccc(-c3ccccc3C#N)cc12	1
Clc1ccc(-c2nnc(CCc3ccccc3)o2)c(Cl)c1	1
CCOC(=O)c1ccc(S(=O)(=O)N2CCN(C)CC2)cc1	-1
CCc1cc2c(c(CC)n1)CCC(=O)N2Cc1ccc(-c2ccccc2-c2nn[nH]n2)cc1	-1
CCOCC(=O)Nc1cc(-c2cn3cccnc3n2)ccc1C	1
Cc1ccc(OCCCn2c(=O)sc3ccccc32)cc1	-1
CCOc1ccc(-n2c(SCC(=O)Nc3ccccc3C)n[nH]c2=O)cc1	-1
CN(C)c1ncnc2ccc(-c3ccccc3C(F)(F)F)cc12	1

Test call for this compound, please: "CC1(C)CC(=O)c2cnc(N)nc2C1"
-1

Now give it for "N=C1CCC[C@@H]1C(=S)SCCC(N)=O" too.
1

Now give it for "COc1ccc2cc(CCNC(=O)C3CC3)c(=O)[nH]c2c1" too.
1

Now give it for "COCC(=O)Nc1ccc(-c2cn3cccnc3n2)cc1" too.
1

Now give it for "CC(=O)Nc1ccc(C(=O)NNC(=O)CCc2ccccc2)cc1" too.
-1

Now give it for "Cc1c(NC(=O)CSc2nnc3c4ccccc4n(CCc4ccccc4)c3n2)c(=O)n(-c2ccccc2)n1C" too.
-1

Now give it for C[C@@]1(C(NC(=O)Cc2ccc(C(F)(F)F)cc2)c2ccc(-c3ccccc3)cc2)C[C@H]1C1CCCCC1 (stereo not given in full) too.
-1

Now give it for "N#CCCSC(=S)[C@H]1CCCC1=N" too.
1

Now give it for "Cc1nc(SCC(=O)c2ccc(Cl)s2)c2oc3ccccc3c2n1" too.
1

Now give it for "COCCn1c(=O)c(-c2cccs2)nc2cnc(Oc3ccccc3)nc21" too.
1

Now give it for "O=C(Nc1cccc(-c2cn3cccnc3n2)c1)c1ccco1" too.
1

Now give it for "O=c1sc2ccccc2n1CCCOc1ccccc1" too.
1

Now give it for "O=C(CN1CCN(S(=O)(=O)c2ccc(F)cc2)CC1)Nc1ccc(Cl)c(C(F)(F)F)c1" too.
-1

* * *

# SYSTEM UNDER TEST: Cytochrome P450 1A2 (Homo sapiens)
# ASSAY PROCEDURE: Cytochrome panel assay with activity outcomes; on activity, negative = inhibition: on the % scale 0 is the no-effect control and ±100 the full control effect
# STUDY CONDITIONS: recombinant CYP, pro-luciferin dealkylation, luminescence, p450-cyp1a2; series mostly up to 57.1 µM
About 5,700 (36%) of roughly 16,000 compounds were called active. Another 24% or so got no clear call; they are omitted. The list shows a part of the results.
MEASUREMENT NAME: activity, negative = inhibition

Sample answers from the record:
C=CC[C@@H]1C=C[C@H](O/N=C2\c3cc(OC)ccc3O[C@H](c3cccc(OC)c3)[C@H]2O)[C@H](CO)O1	-7.04% [at 11.4 µM] (inactive)
CC/C=C\CC[C@H](O)C1=CCCCC1=O	-2.33% [at 11.4 µM] (inactive)
CO[C@@H]1COC(=O)C/C=C\[C@H](C)[C@H](OC)COC(=O)[C@H]2CCCN2C(=O)C/C=C\[C@H]1C	1.02% [at 11.4 µM] (inactive)
O=C(O)C[n+]1ccccc1	-7.86% [at 11.4 µM] (inactive)

For the molecule "O[C@]1(c2ccccc2)c2ccccc2NC2=NCCN21" , what activity, negative = inhibition is on record?
-14.8% [at 11.4 µM] (inactive)

* * *

# SYSTEM UNDER TEST: Cytochrome P450 1A2 (Homo sapiens) (UniProt P05177)
# ASSAY PROCEDURE: Cytochrome panel assay with activity outcomes
# STUDY CONDITIONS: recombinant CYP, pro-luciferin dealkylation, luminescence, p450-cyp1a2; series mostly up to 57.1 µM
Out of some 16,000 compounds screened, about 5,700 (36%) were called active. Inconclusive results (about 24%) are left out. The call rests on the fitted dose curve; in most records, active means well fitted curve in the direction sought with a large enough effect; inconclusive means small, poorly fitted or top-dose-only effect, or effect the other way; inactive means no such curve, though single readings can be large or run the other way. This is one part of the list.
Outcome (select one): active, inactive

Some solved entries appear below for comparison.
CC1Cc2ccccc2N1C(=O)C1CCCCN1S(=O)(=O)c1ccccc1 (configuration not stated)	inactive
CC1Cc2ccccc2N1C(=O)c1cc2c(=O)n3ccccc3nc2n1C (configuration not stated)	active
O=c1[nH]n(-c2cccc(Cl)c2)c2ncccc12	active

Test call for this molecule, please: "O=c1nc(-c2ccccc2)n(-c2ccccc2)c2ncccc12"
inactive

Now give it for "Cn1c(C(=O)N2COCC2(C)C)cc2c(=O)n3ccccc3nc21" too.
active

Now give it for "Cc1ccc(-n2[nH]c(=O)c3cccnc32)cc1" too.
active

Now give it for Cc1ccc(N2C(=O)c3n[nH]c(C)c3C2c2ccccn2)cc1 (configuration not stated) too.
inactive

The measured values listed here are drawn from PubChem BioAssay AID1851.
